# Experimental Target: UniProt:Q08499
# Test Summary: Inhibition of human recombinant PDE4D2 overexpressed in Escherichia coli after 15 mins using [3H]cAMP by scintillation proximity assay
Endpoint: pIC50
One number for each entry, as −log10 of the molar value.

Note to self: pIC50 recorded for CCOC(=O)c1c(NC(=O)Cc2ccccc2)sc2c1CCN(C(=O)OCC)C2 was 7.00

Further cases:
Per the record, CCOC(=O)c1c(NC(=O)Cc2ccccc2)sc2c1CCCC2 has pIC50 of 5.82

* * *

Assignment: determine reported inhibition for the given compounds.
# Experimental Target: 3',5'-cyclic-AMP phosphodiesterase 4D (Homo sapiens)
# Sequence (Q08499 whole entry): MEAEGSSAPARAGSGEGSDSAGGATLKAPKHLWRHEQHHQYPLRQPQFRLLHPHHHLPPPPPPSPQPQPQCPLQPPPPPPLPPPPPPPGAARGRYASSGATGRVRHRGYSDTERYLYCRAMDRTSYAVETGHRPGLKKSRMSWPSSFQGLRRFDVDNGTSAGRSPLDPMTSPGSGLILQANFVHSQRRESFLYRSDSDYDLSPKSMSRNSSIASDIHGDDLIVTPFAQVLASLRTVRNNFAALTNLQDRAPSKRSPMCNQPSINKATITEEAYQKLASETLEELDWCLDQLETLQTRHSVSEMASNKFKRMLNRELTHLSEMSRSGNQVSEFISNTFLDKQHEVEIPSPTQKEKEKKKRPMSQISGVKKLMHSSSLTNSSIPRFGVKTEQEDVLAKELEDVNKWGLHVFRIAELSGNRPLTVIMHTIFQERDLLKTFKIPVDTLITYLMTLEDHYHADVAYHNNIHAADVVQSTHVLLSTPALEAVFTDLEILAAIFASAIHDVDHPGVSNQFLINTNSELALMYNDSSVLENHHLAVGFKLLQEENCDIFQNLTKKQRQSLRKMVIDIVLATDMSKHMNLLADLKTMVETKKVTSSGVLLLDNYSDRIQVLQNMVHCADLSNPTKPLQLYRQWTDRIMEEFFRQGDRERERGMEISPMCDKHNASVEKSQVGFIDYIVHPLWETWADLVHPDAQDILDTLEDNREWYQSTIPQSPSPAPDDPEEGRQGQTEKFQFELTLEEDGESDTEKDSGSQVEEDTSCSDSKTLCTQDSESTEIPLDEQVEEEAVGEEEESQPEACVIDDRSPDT
# Test Summary: Inhibition of N-terminal 6His-tagged human recombinant PDE4D2 expressed in Escherichia coli BL21 (DE3) at 1 uM after 15 mins using [3H]cAMP by scintillation proximity assay
One number for each entry, in %.

Summary: CCOC(=O)N1CCc2c(sc(NC(=O)Cc3ccccc3)c2C(=O)OC2CCCCC2)C1 , 3',5'-cyclic-AMP phosphodiesterase 4D (Homo sapiens), inhibition = 61

So the reported inhibition for CCOC(=O)c1c(NC(=O)Cc2ccccc2)sc2c1CCN(C(=O)OC(C)(C)C)C2 , on 3',5'-cyclic-AMP phosphodiesterase 4D (Homo sapiens), turned out to be 38

Lab note: compound CCOC(=O)c1c(NC(=O)Cc2ccccc2)sc2c1CCCC2 tested on 3',5'-cyclic-AMP phosphodiesterase 4D (Homo sapiens); recorded inhibition was 68

Query CCOC(=O)c1c(NC(=O)Cc2ccccc2)sc2c1CCN(C(=O)OCC)C2 on 3',5'-cyclic-AMP phosphodiesterase 4D (Homo sapiens); inhibition returned: 86

Observed inhibition, 3',5'-cyclic-AMP phosphodiesterase 4D (Homo sapiens), CCOC(=O)c1c(NC(=O)Cc2ccc(OC)cc2)sc2c1CCN(C(=O)OCC)C2 : 23

Field inhibition (system: 3',5'-cyclic-AMP phosphodiesterase 4D (Homo sapiens)) for entry O=C(Cc1ccccn1)Nc1sc2c(c1C(=O)OC1CCCC1)CCN(C(=O)NCc1ccccc1)C2 = 65

Tested system 3',5'-cyclic-AMP phosphodiesterase 4D (Homo sapiens); inhibition recorded for CCNC(=O)N1CCc2c(sc(NC(=O)Cc3cccs3)c2C(=O)OC2CCCC2)C1 was 88

Summary line: CCOC(=O)c1c(NC(=O)Cc2cccs2)sc2c1CCN(C(=O)OCC)C2 , 3',5'-cyclic-AMP phosphodiesterase 4D (Homo sapiens), reported inhibition = 98

Fill in: 3',5'-cyclic-AMP phosphodiesterase 4D (Homo sapiens) inhibition for CCOC(=O)N1CCc2c(sc(NC(=O)Cc3ccccc3)c2C(N)=O)C1 = -1

Summary: CCOC(=O)c1c(NC(=O)Cc2ccccn2)sc2c1CCN(C(=O)OCC)C2 , 3',5'-cyclic-AMP phosphodiesterase 4D (Homo sapiens), inhibition = 72

Report inhibition for every entry below.
1. CCOC(=O)N1CCc2c(sc(NC(=O)Cc3cccs3)c2C(=O)OC2CCCC2)C1
2. CCNC(=O)N1CCc2c(sc(NC(=O)Cc3ccccc3)c2C(=O)OCC)C1

1: 95; 2: 98
